testSystem: NAMPT (human, recombinant, C-terminally His-tagged) (Homo sapiens)
Sequence (P43490 whole entry): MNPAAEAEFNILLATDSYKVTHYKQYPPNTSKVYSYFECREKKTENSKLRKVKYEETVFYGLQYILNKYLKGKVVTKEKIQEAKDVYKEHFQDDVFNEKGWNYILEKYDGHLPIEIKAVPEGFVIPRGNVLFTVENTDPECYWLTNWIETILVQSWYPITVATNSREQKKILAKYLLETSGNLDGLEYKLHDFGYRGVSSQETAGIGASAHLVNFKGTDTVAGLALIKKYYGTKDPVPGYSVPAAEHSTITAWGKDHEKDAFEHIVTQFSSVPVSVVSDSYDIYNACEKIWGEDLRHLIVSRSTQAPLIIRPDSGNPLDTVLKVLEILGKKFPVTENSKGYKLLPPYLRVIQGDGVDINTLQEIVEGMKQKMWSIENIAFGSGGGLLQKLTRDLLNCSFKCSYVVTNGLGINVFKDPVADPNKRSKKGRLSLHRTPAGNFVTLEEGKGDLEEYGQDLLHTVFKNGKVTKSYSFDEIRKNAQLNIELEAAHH
assayExplanation: Time-Resolved Fluorescence Resonance Energy Transfer (TR-FRET) Binding Assay of NAMPT
experimentalSetup: without substrates; 6.8 nM NAMPT, 200 nM probe, 3 hours equilibration
recordedMetric: pIC50
The read-out pIC50 is expressed as -log10 of concentration in moles per litre.

Observe how each entry below is paired with its result.
CC(C)OCC(=O)N1CCC(Oc2ccc(NC(=O)NCc3ccn4ccnc4c3)cc2)CC1 : 6.41
O=C(NCc1ccn2ccnc2c1)Nc1ccc(OC2CCN(C(=O)CC3CCOCC3)CC2)cc1 : 6.40
O=C(NCc1ccn2ccnc2c1)Nc1ccc(C2CCN(C(=O)CC3CC3)C2)cc1 (stereo not shown) : 6.92

We now examine a further molecule.
Q) May I ask what pIC50 has been recorded for O=C(CC1CCOCC1)Nc1ccc(C(=O)NCc2ccc3nccn3c2)cc1 ?
A) 6.92
